Reference for the values: patent US8263606B2

# SYSTEM_UNDER_TEST: CYP3A4 (Homo sapiens, UniProt P08684)
# Sequence (P08684 whole entry): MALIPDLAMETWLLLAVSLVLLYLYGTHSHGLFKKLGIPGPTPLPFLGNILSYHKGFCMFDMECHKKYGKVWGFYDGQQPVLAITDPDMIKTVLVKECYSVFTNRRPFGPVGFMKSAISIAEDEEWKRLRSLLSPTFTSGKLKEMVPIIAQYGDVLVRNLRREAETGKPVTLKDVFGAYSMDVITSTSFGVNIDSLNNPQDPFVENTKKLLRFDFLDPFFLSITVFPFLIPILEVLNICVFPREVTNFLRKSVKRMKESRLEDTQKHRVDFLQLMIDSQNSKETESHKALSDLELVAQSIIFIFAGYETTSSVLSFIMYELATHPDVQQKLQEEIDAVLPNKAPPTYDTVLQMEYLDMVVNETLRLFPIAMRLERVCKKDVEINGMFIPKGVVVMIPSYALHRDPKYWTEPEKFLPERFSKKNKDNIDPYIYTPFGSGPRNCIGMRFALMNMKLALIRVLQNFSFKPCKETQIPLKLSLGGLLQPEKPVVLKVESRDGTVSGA
# PROTOCOL_NOTES: Cytochrome P450 (CYP450) Inhibition Assay, CYP3A4 (Vivid fluorescence, BOMCC substrate)
# TEST_SETTINGS: human, P450 Baculosomes (recombinant CYP3A4), probe BOMCC (Vivid substrate)
MEASURED_PARAMETER: inhibition at 10 µM

COc1cncc(N2C(=O)C3(COc4cc5c(cc43)OCO5)c3ccccc32)c1 (centres unmarked) [Example 1.17]	> 50%
CN(C)c1ccc(CN2C(=O)C3(COc4cc5c(cc43)OCCO5)c3ccccc32)cn1 (centres unmarked) [Example 32.1]	< 50%

Q. Reported inhibition at 10 µM, molecule Cc1ccc(NC(=O)c2ccc(CN3C(=O)C4(COc5cc6c(cc54)CCO6)c4ccccc43)cc2)c(C)c1 (centres unmarked) [Example 12.37] : ____
A. < 50%

Q. How about O=C1N(Cc2ccccc2OC(F)(F)F)c2ccccc2C12COc1cc3c(cc12)OCCO3 (centres unmarked) [Example 7.27] ?
A. < 50%

Q. How about COc1ccc(CN2C(=O)C3(COc4cc(OC)c(C#N)cc43)c3ccccc32)cc1 (centres unmarked) [Example 9.46] ?
A. > 50%

Q. How about COc1cc2c(cc1C)[C@]1(CO2)C(=O)Nc2ccccc21 [Example 3.26] ?
A. > 50%

Q. How about N#CCCN1C(=O)C2(COc3cc4c(cc32)OCO4)c2ccccc21 (centres unmarked) [Example 4.80] ?
A. > 50%

Q. How about CN1C(=O)C2(C(=O)N(Cc3ccccn3)c3ccccc32)c2cc3c(cc21)OCCO3 (centres unmarked) [Example 5.19] ?
A. < 50%

Q. How about Nc1cccc2c1C1(COc3cc4c(cc31)CCO4)C(=O)N2C[C@H]1CCCO1 (some centres unmarked) [Example 11.39] ?
A. > 50%

Q. How about N#Cc1cc2c(cc1O)OCC21C(=O)N(C[C@H]2CCCO2)c2ccccc21 (some centres unmarked) [Example 45] ?
A. < 50%

Q. How about O=C1N(Cc2cc3ccccc3o2)c2ccccc2C12COc1cc3c(cc12)OCO3 (centres unmarked) [Example 1.8] ?
A. > 50%

Q. How about O=C1N(Cc2ccc(F)cc2Cl)c2ccccc2C12COc1cc3c(cc12)OCCO3 (centres unmarked) [Example 7.22] ?
A. < 50%

Q. How about Cc1nnc(-c2ccc(CN3C(=O)C4(COc5cc6c(cc54)CCO6)c4ccccc43)cc2)[nH]1 (centres unmarked) [Example 11.29] ?
A. > 50%

Q. How about COCCOCCN1C(=O)C2(COc3cc4c(cc32)CCO4)c2ccccc21 (centres unmarked) [Example 9.1] ?
A. > 50%

Q. How about O=C(NCCc1ccc(Cl)cc1)c1ccccc1CN1C(=O)C2(COc3cc4c(cc32)CCO4)c2ccccc21 (centres unmarked) [Example 12.24] ?
A. > 50%

Q. How about CC(C)CCN1C(=O)C2(COc3cc4c(cc32)OCCO4)c2c1ccc1ncsc21 (centres unmarked) [Example 2.24] ?
A. > 50%

Q. How about O=C1N(Cc2ccc(C(F)(F)F)o2)c2ccccc2[C@]12COc1cc3c(cc12)OCCO3 [Example 4.50] ?
A. > 50%

Q. How about CN1CCOC(CN2C(=O)C3(COc4cc5c(cc43)CCO5)c3ccccc32)C1 (centres unmarked) [Example 11.41] ?
A. > 50%

Q. How about O=C1N(CC2CCOC2)c2ccccc2C12COc1cc3c(cc12)CCO3 (centres unmarked) [Example 4.16] ?
A. < 50%

Q. How about O=C1N(Cc2ncccc2C(F)(F)F)c2ccccc2[C@@]12COc1cc3c(cc12)OCCO3 [Example 7.15] ?
A. < 50%

Q. How about Cc1nonc1CN1C(=O)C2(COc3cc4c(cc32)OCCO4)c2ccccc21 (centres unmarked) [Example 7.18] ?
A. < 50%

Q. How about O=C1Nc2cccc(-c3ccoc3)c2[C@@]12COc1cc3c(cc12)OCO3 [Example 16.66] ?
A. > 50%

Q. How about Cc1onc(-c2c(Cl)cccc2Cl)c1CN1C(=O)C2(COc3cc4c(cc32)OCO4)c2ccccc21 (centres unmarked) [Example 6.4] ?
A. > 50%

Q. How about O=C1N(Cc2ncccc2C(F)(F)F)c2ccccc2C12COc1c2ccc2c1OCCO2 (centres unmarked) [Example 5.37] ?
A. < 50%
